# credit: patent US20160100579A1

experiment: Measurement of log P values by HPLC on reversed phase columns (EEC directive 79/831 Annex V.A8; methods [a] pH 2.3, [b] pH 2.7, [c] pH 7.8); assay type: physicochemical; settings: method [b]: LC-MS at pH 2.7, 0.1% formic acid in water / acetonitrile
This listing pairs compounds with measured log P.

Some solved cases for reference:
COC(c1ccc(Cl)cc1Cl)C(C)N(C(=O)c1ncc(Cl)cc1C(F)(F)F)C1CC1 (centres unmarked): 5.39^[b]
COC(c1ccc(Cl)cc1Cl)C1(NC(=O)c2ccccc2[N+](=O)[O-])CC1 (centres unmarked): 3.33^[b]
CCOC(c1ccc(Cl)cc1Cl)C(C)NC(=O)c1nccnc1Cl (centres unmarked): 3.89^[b]

[ask] Returns the measured log P for the input compound. Input: COC(c1ccc(F)cc1)C(C)NC(=O)c1ccccc1F (centres unmarked)
[reply] 3.04^[b]

[ask] For CCOC(c1ccc(Cl)cc1Cl)C(C)NC(=O)c1c(F)cccc1F (centres unmarked) then?
[reply] 4.14^[b]

====

system: Haemonchus contortus; test: Haemonchus contortus - Test (HAEMCO); format: in vivo; details: 100 ppm; after 5 days; 100% = all larvae killed
measured metric: activity (efficacy: larval mortality) (%)
Dear colleague, please return just the value in %, with no unit written.

COC(c1ccc(Cl)cc1Cl)C(C)NC(=O)c1sccc1C (stereo not drawn): 80
C#CCOC(CNC(=O)c1sccc1C)c1ccc(Cl)cc1 (stereo not drawn): 80

[ask] Value wanted: activity (efficacy: larval mortality) (Haemonchus contortus) of entry COC(c1ccc(Cl)cc1Cl)C(C)NC(=O)c1ccccc1C(F)(F)F (stereo not drawn)
[reply] 100

====

system: Haemonchus contortus; experiment: Haemonchus contortus - Test (HAEMCO); type: in vivo; conditions: 100 ppm; after 5 days; 100% = all larvae killed
measured metric: activity (efficacy: larval mortality) (%)
Respond with the bare value in %.

COC(c1ccc(Cl)cc1Cl)C(C)NC(=O)c1cccnc1Cl (stereo not shown): 90

[ask] Requested field: activity (efficacy: larval mortality). Item: COC(c1ccc(Cl)cc1)C(C)NC(=O)c1sccc1Br (stereo not shown)
[reply] 100

[ask] Okay, and COC(c1ccc(Cl)cc1)C(C)NC(=O)c1ccoc1C (stereo not shown) ?
[reply] 90

[ask] Also check COC(c1ccc(Cl)cc1Cl)C(C)NC(=O)c1ccccc1Cl (stereo not shown)
[reply] 100

[ask] Another molecule to look at: COC(c1ccc(Cl)cc1)C(C)NC(=O)c1ccsc1Br (stereo not shown)
[reply] 100

[ask] Another molecule: COC(CNC(=O)c1sccc1Cl)c1ccc(Cl)cc1 (stereo not shown)
[reply] 90

[ask] And then COC(CNC(=O)c1ccoc1I)c1ccc(Cl)cc1 (stereo not shown) , what is it?
[reply] 90

[ask] Param item: COC(c1ccc(Cl)cc1Cl)C(C)NC(=O)c1cn(C)nc1C(F)F (stereo not shown)
[reply] 90

[ask] // query: COC(CNC(=O)c1ccsc1Cl)c1ccc(Cl)cc1 (stereo not shown)
[reply] 100

[ask] // same read-out, input: COC(c1ccc(Cl)cc1Cl)C(C)NC(=O)c1cccnc1C(F)(F)F (stereo not shown)
[reply] 100

====

test: Measurement of log P values by HPLC on reversed phase columns (EEC directive 79/831 Annex V.A8; methods [a] pH 2.3, [b] pH 2.7, [c] pH 7.8); type: physicochemical; settings: reversed phase HPLC column; method [c]: LC-MS at pH 7.8, 0.001 molar ammonium hydrogen carbonate in water / acetonitrile; read-out: log P
measured metric: chromatographic logP
Write no unit; give the number alone.

[ask] What value of chromatographic logP has been recorded for this entry: COC(c1ccc(Cl)cc1Cl)C1(NC(=O)c2nccnc2Cl)CC1 (stereo not shown)
[reply] 3.19

====

The following molecules are listed with their measured logP values.
Assay: Measurement of log P values by HPLC on reversed phase columns (EEC directive 79/831 Annex V.A8; methods [a] pH 2.3, [b] pH 2.7, [c] pH 7.8)
Type: physicochemical
Conditions: method [b]: LC-MS, pH 2.7, 0.1% formic acid in water / acetonitrile
Experimental: Measurement of log P-values: Measurement of log P values was performed according EEC directive 79/831 Annex V.A8 by HPLC (High Performance Liquid Chromatography) on reversed phase columns with the following methods: ^[a] Measurement was done at pH 2.3 with 0.1% phosphoric acid and acetonitrile as eluent with a linear gradient from 10% acetonitrile to 95% acetonitrile. […]

Consider the worked cases shown below.
COC(c1ccc(Cl)cc1)C(C)NC(=O)c1ccoc1C (stereo not drawn) [Compound 59]: 3.21^[b]
CCOC(c1ccc(Cl)cc1Cl)C(C)NC(=O)c1cccnc1Cl (stereo not drawn) [Compound 106]: 3.59^[b]
COC(c1cc(Cl)cc(Cl)c1)C(C)NC(=O)c1cccnc1Cl (stereo not drawn) [Compound 94]: 3.17^[b]
COC(c1ccc(Cl)cc1)C(C)NC(=O)c1ccoc1I (stereo not drawn) [Compound 64]: 3.28^[b]
CCC(NC(=O)c1cccnc1C(F)(F)F)C(OC)c1ccc(Cl)cc1Cl (stereo not drawn) [Compound 91]: 3.70^[b]
COC(c1ccc(Cl)cc1)C(C)NC(=O)c1ccsc1 (stereo not drawn) [Compound 62]: 2.84^[b]
COC(CNC(=O)c1c(C(F)F)nn(C)c1Cl)c1cc(Cl)cc(Cl)c1 (stereo not drawn) [Compound 40]: 3.55^[b]
COC(c1ccc(Cl)cc1)C(C)NC(=O)c1ccsc1Br (stereo not drawn) [Compound 63]: 3.68^[b]

Let's switch to this molecule now.
[ask] Name the reported logP value associated with the molecule COC(c1ccc(Cl)cc1)C(C)(C)NC(=O)c1ccccc1F (stereo not drawn) [Compound 83]
[reply] 4.24^[b]

====

# reported logP; entries follow
experiment: Measurement of log P values by HPLC on reversed phase columns (EEC directive 79/831 Annex V.A8; methods [a] pH 2.3, [b] pH 2.7, [c] pH 7.8); type: physicochemical; settings: method [b]: LC-MS, pH 2.7, 0.1% formic acid in water / acetonitrile

CCC(NC(=O)c1cccnc1Cl)C(OC)c1ccc(Cl)cc1Cl (centres unmarked): 3.33^[b]
COC(c1ccc(Cl)cc1Cl)C(C)NC(=O)c1c(F)c(C)nn1C(F)F (centres unmarked): 4.57^[b]
CCOC(c1ccc(Cl)cc1Cl)C(C)NC(=O)c1c(C(F)F)nn(C)c1F (centres unmarked): 4.20^[b]
CCC(NC(=O)c1c(C(F)F)nn(C)c1F)C(OC)c1ccc(Cl)cc1Cl (centres unmarked): 3.94^[b]
COC(c1ccc(Cl)cc1Cl)C(C)NC(=O)c1c(C(F)F)nn(C)c1F (centres unmarked): 3.65^[b]

[ask] Fill in the blank: the reported logP of COC(c1ccc(Cl)cc1Cl)C(C)(C)NC(=O)c1c(F)cccc1F (centres unmarked) is ____.
[reply] 4.29^[b]

[ask] Ok, now COC(c1ccc(Cl)cc1Cl)C1(NC(=O)c2nccnc2C(F)(F)F)CC1 (centres unmarked)
[reply] 3.61^[b]

[ask] COC(CNC(=O)c1cccnc1C(F)F)c1ccc(Cl)cc1Cl (centres unmarked) , same question.
[reply] 2.80^[b]

[ask] One more molecule: COC(c1ccc(Cl)cc1Cl)C(C)NC(=O)c1c(C)nn(C)c1F (centres unmarked)
[reply] 3.13^[b]

[ask] Then COC(c1cc(Cl)cc(Cl)c1)C(C)NC(=O)c1cccnc1C(F)F (centres unmarked) ?
[reply] 2.03^[b]

[ask] Same lookup for CCOC(c1ccc(Cl)cc1Cl)C(C)NC(=O)c1nccnc1C(F)(F)F (centres unmarked) , please.
[reply] 4.16^[b]

[ask] Lookup COC(CNC(=O)c1c(C(F)F)nn(C)c1F)c1ccc(Cl)cc1Cl (centres unmarked)
[reply] 3.25^[b]

====

experiment: Measurement of log P values by HPLC on reversed phase columns (EEC directive 79/831 Annex V.A8; methods [a] pH 2.3, [b] pH 2.7, [c] pH 7.8); assay type: physicochemical; details: method [c]: LC-MS at pH 7.8, 0.001 molar ammonium hydrogen carbonate in water / acetonitrile
measured metric: log P

COC(c1ccc(F)cc1)C(C)NC(=O)c1ccccc1Br (centres unmarked): 2.95^[c];
COC(c1ccc(Cl)cc1)C(C)NC(=O)c1ccccc1C(F)F (centres unmarked): 3.42^[c];
CCOC(c1ccc(Cl)cc1Cl)C(C)NC(=O)c1sc(C)nc1C(F)(F)F (centres unmarked): 4.42^[c];
COC(c1ccc(Cl)cc1Cl)C1(NC(=O)c2ccccc2[N+](=O)[O-])CC1 (centres unmarked): 3.26^[c];
CCOC(c1ccc(Cl)cc1Cl)C(C)NC(=O)c1cccnc1 (centres unmarked): 3.03^[c];

[ask] Dear colleague, I am looking for the recorded log P of the following molecule: COC(c1ccc(Cl)cc1)C(C)NC(=O)c1ccccc1[N+](=O)[O-] (centres unmarked)
[reply] 2.93^[c];

[ask] Subsequent entry: CCOC(c1ccc(Cl)cc1Cl)C(C)NC(=O)c1ccccc1Br (centres unmarked)
[reply] 4.39^[c];

[ask] Now consider COC(c1ccccc1Cl)C(C)NC(=O)c1ccccc1C(F)(F)F (centres unmarked) .
[reply] 3.41^[c];

[ask] Please answer likewise for COC(c1ccc(Cl)cc1)C(C)NC(=O)c1ccccc1Cl (centres unmarked)
[reply] 3.21^[c]

[ask] // query: COC(c1ccc(Cl)cc1Cl)C1(NC(=O)c2ccccc2F)CC1 (centres unmarked)
[reply] 3.75^[c];

[ask] Same read-out for COC(c1ccc(Cl)cc1Cl)C1(NC(=O)c2ccccc2C)CC1 (centres unmarked) ?
[reply] 3.72^[c];
